System: UACC-62 melanoma
PROTOCOL_TEXT: NCI tumour cell line growth inhibition, 48 h
EXPERIMENTAL_ENDPOINT: TGI

{"MOLECULE": "O=C(O)C1Cc2ccccc2OC1=O (stereo not drawn)", "TARGET_DESC": "UACC-62 melanoma", "EXPERIMENTAL_ENDPOINT": "TGI", "REPORTED_MEASUREMENT": "> 100 µM"}
{"MOLECULE": "O=C(O)CCc1nc(-c2ccccc2)c(-c2ccccc2)o1", "TARGET_DESC": "UACC-62 melanoma", "EXPERIMENTAL_ENDPOINT": "TGI", "REPORTED_MEASUREMENT": "> 100 µM"}
{"MOLECULE": "CCCCCCCCCCC(CN(CC)CC)C(O)c1ccccc1 (stereo not drawn)", "TARGET_DESC": "UACC-62 melanoma", "EXPERIMENTAL_ENDPOINT": "TGI", "REPORTED_MEASUREMENT": "3.46 µM"}
{"MOLECULE": "FC(F)(F)c1nc2cc(SSc3cc4nc(C(F)(F)F)[nH]c4cc3Cl)c(Cl)cc2[nH]1", "TARGET_DESC": "UACC-62 melanoma", "EXPERIMENTAL_ENDPOINT": "TGI", "REPORTED_MEASUREMENT": "> 100 µM"}
{"MOLECULE": "CC(=O)[CH-]C(=O)c1ccccc1.CC(=O)[CH-]C(=O)c1ccccc1.CC12CC3(C)CC(C)(C1)CC([O-])(C2)C3.CC[O-].[Ti+4]", "TARGET_DESC": "UACC-62 melanoma", "EXPERIMENTAL_ENDPOINT": "TGI", "REPORTED_MEASUREMENT": "45.2 µM"}
{"MOLECULE": "O=C1/C(=C\\c2cn(CC(O)CN3CCCCC3)c3ccccc23)c2ccccc2N1c1c(Cl)cccc1Cl (stereo not drawn)", "TARGET_DESC": "UACC-62 melanoma", "EXPERIMENTAL_ENDPOINT": "TGI", "REPORTED_MEASUREMENT": "3.2 µM"}
{"MOLECULE": "O=C(Nc1cc([N+](=O)[O-])cc([N+](=O)[O-])c1)OC1C2CCC1C1OC1C2 (stereo not drawn)", "TARGET_DESC": "UACC-62 melanoma", "EXPERIMENTAL_ENDPOINT": "TGI", "REPORTED_MEASUREMENT": "> 50 µM"}
{"MOLECULE": "CCCCCC/C=C/CCCCCCCc1cccc(O)c1C(=O)O", "TARGET_DESC": "UACC-62 melanoma", "EXPERIMENTAL_ENDPOINT": "TGI", "REPORTED_MEASUREMENT": "> 100 µM"}
{"MOLECULE": "CCC(C)c1cnc(CC(C)C)c(=O)[nH]1 (stereo not drawn)", "TARGET_DESC": "UACC-62 melanoma", "EXPERIMENTAL_ENDPOINT": "TGI", "REPORTED_MEASUREMENT": "> 100 µM"}
{"MOLECULE": "O=C1CSC(c2c(O)ccc3ccccc23)N1n1c(=S)[nH]nc(/C=C/c2c(O)ccc3ccccc23)c1=O (stereo not drawn)", "TARGET_DESC": "UACC-62 melanoma", "EXPERIMENTAL_ENDPOINT": "TGI", "REPORTED_MEASUREMENT": "10.1 µM"}
{"MOLECULE": "CCOC(=O)c1[nH]n(-c2ccccc2)c(=O)c1C=NC(=S)C(N)=S", "TARGET_DESC": "UACC-62 melanoma", "EXPERIMENTAL_ENDPOINT": "TGI", "REPORTED_MEASUREMENT": "> 100 µM"}
{"MOLECULE": "O/N=C1/C(=C/c2ccccc2)CCCC1C(NO)c1ccccc1 (stereo not drawn)", "TARGET_DESC": "UACC-62 melanoma", "EXPERIMENTAL_ENDPOINT": "TGI", "REPORTED_MEASUREMENT": "> 100 µM"}
{"MOLECULE": "CN(C(=O)C1CC1)C1C2CN3CCC(O2)C13 (stereo not drawn)", "TARGET_DESC": "UACC-62 melanoma", "EXPERIMENTAL_ENDPOINT": "TGI", "REPORTED_MEASUREMENT": "> 100 µM"}

###

Test system: SK-MEL-2 melanoma
PROTOCOL_TEXT: NCI tumour cell line growth inhibition, 48 h

{"COMPOUND": "CN(/C(=N\\O)c1ccccc1)c1ccccc1", "TGI": "70.1 µM"}
{"COMPOUND": "O=C(O)[C@H]1NC[C@@H]2ON=C(Br)[C@@H]21", "TGI": "> 100 µM"}
{"COMPOUND": "CNc1nc(=O)c(C#N)c(-c2ccc(C)cc2)s1", "TGI": "> 100 µM"}
{"COMPOUND": "CC1(C)N=C(/C(C#N)=[N+](/[O-])C(=O)c2ccccc2)C(C)(C)N1O", "TGI": "> 100 µM"}
{"COMPOUND": "C=C(C)C1CCC2(CO)C(O)CC3(C)C(CCC4C5(C)CCC(O)C(C)(C)C5CCC43C)C12 (stereo not given)", "TGI": "32 µM"}
{"COMPOUND": "Oc1oc(-c2ccccc2)nc1/C=C1/C=NN=N1", "TGI": "> 100 µM"}
{"COMPOUND": "Cn1c2cc(Cl)ccc2c2ccc3c(c21)C(=O)C=CC3=O", "TGI": "> 100 µM"}
{"COMPOUND": "OC(C1CCCC1=N/N=C1/CCCC1C(O)(C(F)(F)Cl)C(F)(F)Cl)(C(F)(F)Cl)C(F)(F)Cl (stereo not given)", "TGI": "> 10 µM"}
{"COMPOUND": "CCC(c1nc2ccccc2c(=O)n1NC(=O)C(C)(C)C)C1(O)CCCCC1 (stereo not given)", "TGI": "> 100 µM"}
{"COMPOUND": "CCC(=O)n1c(=O)n(-c2ccc([N+](=O)[O-])cc2)c(=O)n1C(=O)CC", "TGI": "> 100 µM"}
{"COMPOUND": "O=C(NN1C(=O)C(Cl)C1c1ccc([N+](=O)[O-])cc1)c1ccccc1O (stereo not given)", "TGI": "> 100 µM"}
{"COMPOUND": "COC(=O)C1=C2Nc3ccccc3C23CCN2C(O)C4(CC5CC67CCOC6CCN6CCC8(c9cccc(OC)c9N(C4)C58O)C67)C4OCCC4(C1)C23 (stereo not given)", "TGI": "> 100 µM"}
{"COMPOUND": "CC(=O)NNc1nc(C)c(C(/C=C/c2ccc(Cl)cc2)=N/NC(=S)NN)s1", "TGI": "> 100 µM"}
{"COMPOUND": "COc1cc(CCC(=O)NS(=O)(=O)c2ccccc2)cc(OC)c1OC", "TGI": "> 100 µM"}
{"COMPOUND": "O=C(O)CCc1nc(-c2ccccc2)c(-c2ccccc2)o1", "TGI": "> 100 µM"}
{"COMPOUND": "Nc1ccc(S(=O)(=O)c2ccc(N=[N+]([O-])c3ccc(S(=O)(=O)c4ccc(N)cc4)cc3)cc2)cc1", "TGI": "> 94.2 µM"}
{"COMPOUND": "COC(=O)c1cccc2c1Oc1ccccc1S2", "TGI": "> 100 µM"}
{"COMPOUND": "C[n+]1ccc2[nH]c3ccccc3c2c1", "TGI": "> 100 µM"}
{"COMPOUND": "Cc1ccc(-c2nc3n(c2/C=N\\N=C(N)N)CCS3)cc1", "TGI": "25.9 µM"}
{"COMPOUND": "O=C(O)C1=C(Cl)c2ccccc2S1(=O)=O", "TGI": "> 100 µM"}
{"COMPOUND": "c1cc(C2N3CCCN2CC3)ccn1 (stereo not given)", "TGI": "> 100 µM"}
{"COMPOUND": "COc1cc(C2c3cc4c(cc3OC(N3CCOCC3)C2C)OCO4)cc(OC)c1OC (stereo not given)", "TGI": "28.2 µM"}
{"COMPOUND": "O=C(/C=C\\c1ccc(OCCCCCC[P+](c2ccccc2)(c2ccccc2)c2ccccc2)cc1)c1ccc2c(c1)OCCO2", "TGI": "3.9 µM"}
{"COMPOUND": "CN(c1ccccc1Cl)S(=O)(=O)c1ccccc1", "TGI": "> 100 µM"}
{"COMPOUND": "CCC(C)c1cnc(CC(C)C)c(=O)[nH]1 (stereo not given)", "TGI": "> 100 µM"}
{"COMPOUND": "ClC1=C(Cl)C(Cl)=C(Cl)C1=Cc1ccc(Cl)cc1Cl", "TGI": "4.49 µM"}
{"COMPOUND": "CC1=NN(c2cccc(Cl)c2)C2(C1)SCC(=O)N2c1nc2ccccc2s1 (stereo not given)", "TGI": "49.2 µM"}
{"COMPOUND": "O=C(Nc1cc([N+](=O)[O-])cc([N+](=O)[O-])c1)OC1C2CCC1C1OC1C2 (stereo not given)", "TGI": "> 50 µM"}
{"COMPOUND": "NC(=O)N/N=C1/CCCC/C1=C\\c1ccccc1", "TGI": "> 100 µM"}
{"COMPOUND": "COC(=O)Nc1nc2ccc(NS(=O)(=O)c3ccc(F)cc3)cc2[nH]1", "TGI": "> 100 µM"}
